Readout Name: melting point

Solved cases (8 shown):
>  <Compound>
Cc1nnc(Cl)c2ccccc12

>  <melting point>
123 to 125 °C

$$$$
>  <Compound>
CN(C)C(=O)CO

>  <melting point>
32 to 34 °C

$$$$
>  <Compound>
COc1ccc(N)cc1OCC(F)(F)F

>  <melting point>
154 to 156 °C

$$$$
>  <Compound>
Nc1c(F)cc(Cl)cc1F

>  <melting point>
44 to 46 °C

$$$$
>  <Compound>
Cc1ccccc1-c1noc(S)n1

>  <melting point>
150 to 152 °C

$$$$
>  <Compound>
O=c1cnc2ccccc2[nH]1

>  <melting point>
271 to 272 °C

$$$$
>  <Compound>
COc1ccccc1NS(=O)(=O)c1cccc(C(=O)O)c1

>  <melting point>
156 to 158 °C

$$$$
>  <Compound>
CCNC(=O)NC(=O)C(C)Cl (stereo not drawn)

>  <melting point>
126 to 128 °C

$$$$

Challenge: Report melting point, nothing else, for this compound: O=C(O)CCSc1ccc(Cl)cc1
Response given: 85 to 87 °C

Challenge: Report melting point, nothing else, for this compound: Cn1ccnc1-c1ccc([N+](=O)[O-])cc1
Response given: 107 to 109 °C

Challenge: Report melting point, nothing else, for this compound: N#CCC(=O)NC1CCCCC1
Response given: 132 to 134 °C

Challenge: Report melting point, nothing else, for this compound: N#CC1(N2CCNCC2)CCCCC1
Response given: 82 to 84 °C

Data provenance is a melting point compilation (Tetko et al.).
